protocol.text: Selectivity index, ratio of CC50 for African green monkey Vero cells to EC50 for Kaposi's sarcoma-associated herpesvirus infected in African green monkey Vero cells
Assay type: toxicity, cell-based
particulars: read-out: Ratio CC50/EC50
observable: selectivity ratio

CC(C)C(=O)c1c(O)cc(O)c2c1O[C@]1(C)CC[C@H](C(C)(C)O)[C@H]2[C@@H]1O ... > 3.55
CC(C)C(=O)c1c(O)cc(O)c(C[C@@H]2[C@@H](C(C)(C)O)CC[C@]2(C)O)c1O ... > 1.89
CC(C)C(=O)c1c(O)cc(O)c2c1O[C@@]1(C)CC[C@@H](C(C)(C)O)[C@@H]2[C@H]1O ... > 2.46

As a next step, examine the molecule that follows.
Entry CC(C)C(=O)c1c(O)cc(O)c(C[C@H]2[C@H](C(C)(C)O)CC[C@@]2(C)O)c1O ; selectivity ratio = > 7.5
